assay: Determination of solubility (HPLC)
Format: physicochemical
property: Solubility, Normal Saline

Below, 5 compounds whose answers are already recorded.
compound	value
COc1ccc(-c2oc3c(CC=C(C)C)c(O)cc(O)c3c(=O)c2OC(=O)CCC(=O)OCCOCCOCc2cn(CCO[C@@H]3O[C@H](CO)[C@@H](O)[C@H](O)[C@H]3O)nn2)cc1 [Compound 65]	Insoluble
COc1ccc(-c2oc3c(CC=C(C)C)c(O)cc(O)c3c(=O)c2OC(=O)CCC(=O)OCCOCCOCCOCc2cn(C3OC(CO)C(O)C(O)C3O)nn2)cc1 (stereo not shown) [Compound 57]	16.383 ± 0.941 µg/mL
COc1ccc(-c2oc3c(CC=C(C)C)c(O)cc(O)c3c(=O)c2OC(=O)CCC(=O)OCCN(CCOCc2cn(CCO[C@@H]3O[C@H](CO)[C@@H](O)[C@H](O)[C@H]3O)nn2)c2ccccc2)cc1 [Compound 104]	Insoluble
COc1ccc(-c2oc3c(CC=C(C)C)c(O)cc(O)c3c(=O)c2OC(=O)CCC(=O)OCCOCCOCCOCCOCc2cn([C@H]3O[C@@H](CO)[C@H](O)[C@@H](O)[C@@H]3O)nn2)cc1 [Compound 50]	Insoluble
COc1ccc(-c2oc3c(CC=C(C)C)c(O)cc(O)c3c(=O)c2OC(=O)CCC(=O)OCCOCc2cn(CCOCCOC3OC(CO)C(O)C(O)C3O)nn2)cc1 (stereo not shown) [Compound 73]	Insoluble

Incoming: Data request, read-out Solubility, Normal Saline, for COc1ccc(-c2oc3c(CC=C(C)C)c(O)cc(O)c3c(=O)c2OC(=O)CCC(=O)OCCCCOCc2cn(CCOCCOC3OC(CO)C(O)C(O)C3O)nn2)cc1 (stereo not shown) [Compound 89]
Outgoing: Insoluble

Incoming: Data request, read-out Solubility, Normal Saline, for COc1ccc(-c2oc3c(CC=C(C)C)c(O)cc(O)c3c(=O)c2OC(=O)CCC(=O)OCCOCCOCc2cn([C@H]3O[C@@H](CO)[C@H](O)[C@@H](O)[C@@H]3O)nn2)cc1 [Compound 64]
Outgoing: Insoluble

Incoming: Data request, read-out Solubility, Normal Saline, for COc1ccc(-c2oc3c(CC=C(C)C)c(O)cc(O)c3c(=O)c2OC(=O)CCC(=O)OCCOCc2cn(CCOC3OC(CO)C(O)C(O)C3O)nn2)cc1 (stereo not shown) [Compound 72]
Outgoing: 5.673 ± 1.031 µg/mL

Incoming: Data request, read-out Solubility, Normal Saline, for COc1ccc(-c2oc3c(CC=C(C)C)c(O)cc(O)c3c(=O)c2OC(=O)CCC(=O)OCCCOCc2cn(CCOCCOC3OC(CO)C(O)C(O)C3O)nn2)cc1 (stereo not shown) [Compound 97]
Outgoing: 5.036 ± 1.031 µg/mL

Incoming: Data request, read-out Solubility, Normal Saline, for COc1ccc(-c2oc3c(CC=C(C)C)c(O)cc(O)c3c(=O)c2OC(=O)CCC(=O)NCCCCCOCc2cn(C3O[C@H](CO)[C@@H](O)[C@H](O)[C@H]3O)nn2)cc1 (stereo partly shown) [Compound 81]
Outgoing: Insoluble

Incoming: Data request, read-out Solubility, Normal Saline, for COc1ccc(-c2oc3c(CC=C(C)C)c(O)cc(O)c3c(=O)c2OC(=O)CCC(=O)OCCCCOCc2cn(CCOC3OC(CO)C(O)C(O)C3O)nn2)cc1 (stereo not shown) [Compound 88]
Outgoing: 7.399 ± 0.384 µg/mL

Incoming: Data request, read-out Solubility, Normal Saline, for COc1ccc(-c2oc3c(CC=C(C)C)c(O)cc(O)c3c(=O)c2OC(=O)CCC(=O)OCCOCc2cn(C3O[C@H](CO)[C@@H](O)[C@H](O)[C@H]3O)nn2)cc1 (stereo partly shown) [Compound 71]
Outgoing: Insoluble

Incoming: Data request, read-out Solubility, Normal Saline, for COc1ccc(-c2oc3c(CC=C(C)C)c(O)cc(O)c3c(=O)c2OC(=O)CCC(=O)OCc2cn(CCOC3OC(CO)C(O)C(O)C3O)nn2)cc1 (stereo not shown) [Compound 39]
Outgoing: 13.828 ± 1.123 µg/mL
